Sourced from patent US20050267136A1

Tested on: E. coli strain MC1061
Experiment: Duplicate screen of 1000 Maybridge compounds for growth inhibition
Format: cell-based, Escherichia coli
Conditions: 10 μL of 1 mM compound in 200 μL/well, 36 hours at 37° C., OD 600 nm
We use 2% as the dividing line for Growth in Primary Screens, second value of the duplicate: on or above the line is satisfied, below is not satisfied.

Here are 4 compounds together with their reported answers.
> print(dat)
                            smiles.notation    label.class
1  Nc1nc(-c2ccc(-n3cccc3)cc2)cc(C(F)(F)F)n1      satisfied
2      Clc1ccc(Cc2n[nH]cc2Sc2ccc(Cl)cc2)cc1      satisfied
3       O=C(Oc1c(Cl)cc(Cl)c2cccnc12)c1cccs1      satisfied
4  N#CC(C#N)=NNc1cc(C(F)(F)F)cc(C(F)(F)F)c1  not satisfied

Note: attention shifts to another entry.
// inclusive: Growth in Primary Screens, second value of the duplicate at least 2%? input: CSC(=N)NC(=S)Nc1cccc(Cl)c1
satisfied
